test system: human cancer cell lines; assay: cell proliferation in culture; format: cell-based; settings: in 9 cell lines, read-out: inhibits cell proliferation in culture IC50
Metric Name: IC50 (nM)
Reply with just the number (in nM).

(Q) Quote human cancer cell lines IC50 for entry Nc1nc(Nc2ccc(S(N)(=O)=O)cc2)nn1C(=O)c1c(F)cccc1F [JNJ 7706621] .
(A) 337

* * *

system: injured cartilage explants, GAG release; experiment: drop tower design model: GAG release; type: cell-based, bovine; settings: injured cartilage explants, inflammatory conditions
Metric Name: GAG, inhibition of degradation/release

C[C@H](Nc1nccc(-c2c(-c3ccc(F)cc3)nc3nc(N)ccn23)n1)c1ccccc1 [JNJ 7583979 (RWJ 351958)]    little efficacy
OCCC#Cc1nc(-c2ccc(F)cc2)c(-c2ccncc2)n1CCCc1ccccc1 [JNJ 3026582 (RWJ 67657)]    little efficacy

* * *

test system: IL-1β-stimulated NO production, bovine chondrocyte pellets / ARC tissues; test: chondrocyte pellet culture model: total nitrite/nitrate (NO); format: cell-based; conditions: Pellet Assay; read-out: NO Inhibition IC50
Metric Name: pIC50
Formally, pIC50 is defined as -log10 of the concentration c, with c in mol/L.

(Q) Answer with reported pIC50 of CC(=O)N1CCN(c2c(-c3ccncc3)c(-c3ccc(F)cc3)c(C#N)n2C)CC1 [JNJ 17089540 (RWJ 669307)]
(A) 5.31

* * *

Tested on: IL-1β-stimulated NO production, bovine chondrocyte pellets / ARC tissues
Experiment: chondrocyte pellet culture model: total nitrite/nitrate (NO)
Assay type: cell-based
Details: bovine ARC, 7.5 ng/ml IL-1β, five days; read-out: NO IC50
Procedure: Calf articular cartilage was obtained from the knee joints of eight to twelve month old animals and was processed within twenty-four hours after sacrifice. […] Nitrate/Nitrite levels were measured using the Griess reaction (Green L. C. et al., “Analysis of Nitrate, Nitrite, and [15N]nitrate in Biological Fluids,” Anal. Biochem. 126: 131-138 (1982)) with aNitrate/Nitrite Colorimetric Assay Kit (Cayman Chemicals), the contents of which are incorporated herein by reference. […]
Metric Name: IC50 (µM)
Reply with just the number (in µM).

(Q) Answer with reported IC50 of CC(=O)N1CCN(c2c(-c3ccncc3)c(-c3ccc(F)cc3)c(C#N)n2C)CC1 [JNJ 17089540 (RWJ 669307)]
(A) 4.92
